Can you tell me Kd for the items I'm about to list?
studySystem: T1, recombinant human IL-23R/Fc chimera (R&D Systems) (human, UniProt Q5VWK5 24-355)
T1 construct: Bought; also called rhIL23RFc
T1 sequence (looked up): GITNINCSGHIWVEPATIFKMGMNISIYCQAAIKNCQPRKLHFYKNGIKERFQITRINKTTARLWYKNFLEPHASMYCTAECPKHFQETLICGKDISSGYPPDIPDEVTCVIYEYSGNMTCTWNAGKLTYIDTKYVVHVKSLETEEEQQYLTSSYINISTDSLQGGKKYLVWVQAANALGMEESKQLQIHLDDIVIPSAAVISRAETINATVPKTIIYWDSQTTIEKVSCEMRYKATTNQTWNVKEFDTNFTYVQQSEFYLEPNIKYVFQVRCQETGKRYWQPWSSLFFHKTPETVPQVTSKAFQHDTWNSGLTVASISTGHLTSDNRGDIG
testProtocol: SPR
Please provide the amount together with its unit, number first.

(Q) GET /values?readout=Kd&item= 056-53.H1G ATRIMER complex (designed binder, Homotrimer of this chain (ATRIMER complex)., not shown: A possible extra N-terminal Ser from the ompA junction is left out) EPPTQKPKKIVNAKKDVVNTKMFEELKSRLDTLAQEVALLKEQQALQTVCLKGTKVHMKCFLAFTQTKTFHEASEDCISRGGTLSTPQTGSENDALYEYLRQSVGNEAEIWLGLNSGHWRAVWVDMTGARIAYKNWETEITAQPDGGFGVFGENCAVLSGAANGKWFDKRCRDQLPYICQFGIV
(A) 5.13 nM

(Q) GET /values?readout=Kd&item= 105-08-1A4 ATRIMER complex (designed binder) EPPTQKPKKIVNAKKDVVNTKMFEELKSRLDTLAQEVALLKEQQALQTVCLKGTKVHMKCFLAFTQTKTFHEASEDCISRGGTLSTPQTGSENDALYEYLRQSVGNEAEIWLGLNGSAVTNTWVDMTGARIAYKNWETEITAQPDGGFGYFGENCAVLSGAANGKWFDKRCRDQLPYICQFGIV
(A) 1.25 nM

(Q) GET /values?readout=Kd&item= 105-08-2C10 ATRIMER complex (designed binder) EPPTQKPKKIVNAKKDVVNTKMFEELKSRLDTLAQEVALLKEQQALQTVCLKGTKVHMKCFLAFTQTKTFHEASEDCISRGGTLSTPQTGSENDALYEYLRQSVGNEAEIWLGLNGSLLTDTWVDMTGARIAYKNWETEITAQPDGGFGVFGENCAVLSGAANGKWFDKRCRDQLPYICQFGIV
(A) 0.612 nM

(Q) GET /values?readout=Kd&item= 105-08-1A3 ATRIMER complex (designed binder, Homotrimer of three identical chains (ATRIMER complex); one chain is given., not shown: C-terminal tag: His/Myc (pANA4) or HA-StrepII (pANA10)) EPPTQKPKKIVNAKKDVVNTKMFEELKSRLDTLAQEVALLKEQQALQTVCLKGTKVHMKCFLAFTQTKTFHEASEDCISRGGTLSTPQTGSENDALYEYLRQSVGNEAEIWLGLNGSPRTDTWVDMTGARIAYKNWETEITAQPDGGWGVFGENCAVLSGAANGKWFDKRCRDQLPYICQFGIV
(A) 0.473 nM

(Q) GET /values?readout=Kd&item= 001-89.C3C monomeric CTLD (designed binder, C-terminal tag not specified) ALQTVCLKGTKVHMKCFLAFTQTKTFHEASEDCISRGGTLSTPQTGSENDALYEYLRQSVGNEAEIWLGLNANRRRTMWVDMTGARIAYKNWETEITAQPDGGMGVWGENCAVLSGAANGKWFDKRCRDQLPYICQFGIV
(A) 187 nM

(Q) GET /values?readout=Kd&item= 001-69.4D4 monomeric CTLD (designed binder, C-terminal tag not specified) ALQTVCLKGTKVHMKCFLAFTQTKTFHEASEDCISRGGTLSTPQTGSENDALYEYLRQSVGNEAEIWLGLNGSVRGRTWVDMTGARIAYKNWETEITAQPDGGIGVWGENCAVLSGAANGKWFDKRCRDQLPYICQFGIV
(A) 148 nM

(Q) GET /values?readout=Kd&item= 101-51-1A4 ATRIMER complex (designed binder, Forms a homotrimer through the tetranectin coiled coil; one protomer is given., not shown: C-terminal tag: His/Myc (pANA4) or HA-StrepII (pANA10)) EPPTQKPKKIVNAKKDVVNTKMFEELKSRLDTLAQEVALLKEQQALQTVCLKGTKVHMKCFLAFTQTKTFHEASEDCISRGGTLSTPQTGSENDALYEYLRQSVGNEAEIWLGLNGSALTNTWVDMTGARIAYKNWERPALVQPRGGFGVFGENCAVLSGAANGKWFDKRCRDQLPYICQFGIV
(A) 0.388 nM

(Q) GET /values?readout=Kd&item= 001-69.3C2 monomeric CTLD (designed binder, C-terminal tag not specified) ALQTVCLKGTKVHMKCFLAFTQTKTFHEASEDCISRGGTLSTPQTGSENDALYEYLRQSVGNEAEIWLGLNTNVTRTLWVDMTGARIAYKNWETEITAQPDGGLGVWGENCAVLSGAANGKWFDKRCRDQLPYICQFGIV
(A) 186 nM

(Q) GET /values?readout=Kd&item= 101-51-1A7 ATRIMER complex (designed binder, Forms a homotrimer through the tetranectin coiled coil; one protomer is given., not shown: C-terminal tag: His/Myc (pANA4) or HA-StrepII (pANA10)) EPPTQKPKKIVNAKKDVVNTKMFEELKSRLDTLAQEVALLKEQQALQTVCLKGTKVHMKCFLAFTQTKTFHEASEDCISRGGTLSTPQTGSENDALYEYLRQSVGNEAEIWLGLNGSALTNTWVDMTGARIAYKNWERPPLYQPGGGWGVFGENCAVLSGAANGKWFDKRCRDQLPYICQFGIV
(A) 0.447 nM

(Q) GET /values?readout=Kd&item= 001-87.A4A monomeric CTLD (designed binder, C-terminal tag not specified) ALQTVCLKGTKVHMKCFLAFTQTKTFHEASEDCISRGGTLSTPQTGSENDALYEYLRQSVGNEAEIWLGLNWTLAKNLWVDMTGARIAYKNWETEITAQPDGGLFGRGENCAVLSGAANGKWFDKRCRDQLPYICQFGIV
(A) 193 nM

(Q) GET /values?readout=Kd&item= 101-113-6C108 ATRIMER complex (designed binder, Forms a homotrimer through the tetranectin coiled coil; one protomer is given., not shown: C-terminal tag: His/Myc (pANA4) or HA-StrepII (pANA10)) EPPTQKPKKIVNAKKDVVNTKMFEELKSRLDTLAQEVALLKEQQALQTVCLKGTKVHMKCFLAFTQTKTFHEASEDCISRGGTLSTPQTGSENDALYEYLRQSVGNEAEIWLGLNGSALTNTWVDMTGARIAYKNWEPPPPHHPMGGFGVFGENCAVLSGAANGKWFDKRCRDQLPYICQFGIV
(A) 0.613 nM

(Q) GET /values?readout=Kd&item= 105-08-2G10 ATRIMER complex (designed binder) EPPTQKPKKIVNAKKDVVNTKMFEELKSRLDTLAQEVALLKEQQALQTVCLKGTKVHMKCFLAFTQTKTFHEASEDCISRGGTLSTPQTGSENDALYEYLRQSVGNEAEIWLGLNGSPLTDTWVDMTGARIAYKNWETEITAQPDGGFGYFGENCAVLSGAANGKWFDKRCRDQLPYICQFGIV
(A) 1.32 nM
